# assayMethodText: Brain/plasma pharmacokinetics, single i.v. bolus in rats
# Assay type: in vivo, Sprague-Dawley rats
# condition: Sprague-Dawley, rat, brain, intravenous, 10 mg/kg, 10 mg/kg bolus i.v., normal rats, t = 8 h; read-out: BAUC/PAUC Ratio
resultType: Kp

Using known records, supply Kp for Cc1nc2c(c3c1[nH]c1ccccc13)C(=O)CC(C)(C)C2
2.56

----------
# assayMethodText: Plasma pharmacokinetics, single dose in rats
# Assay type: in vivo, Sprague-Dawley rats
# condition: Sprague-Dawley, rat, plasma, iv; i.v. 2 mg/kg, normal rats; read-out: Vdss
resultType: Vd (L/kg)
The reply should be a number in L/kg, with the unit left off.

Give reported Vd value for Cc1nc2c(c3c1[nH]c1ccccc13)C(=O)CC(C)(C)C2
2.31

Values compiled from patent US20110021776A1.
